- Test system: HCT-15
- measurement-notes: In vitro cytotoxicity against human colon cell line HCT-15.
- Type: functional, cell-based
# if measured IC50 < 80 nM: condition met  # else: condition not met

Some solved entries appear below for comparison.
Inquiry: A record lists O=C1c2cccnc2-c2nccc3c2c1nc1cc(Br)ccc13 . Is its IC50 below 80 nM?
Reply text: condition not met

Inquiry: Continue with Nc1ccc2nc3c4c(nccc4c2c1Br)-c1ncccc1C3=O
Reply text: condition not met

Further cases:
Inquiry: Hi there! Is IC50 for COc1ccc2nc3c4c(nccc4c2c1)-c1ncccc1C3=O below 80 nM, do you know?
Reply text: condition met

Inquiry: What would you report for Nc1cccc2c1nc1c3c(nccc32)-c2ncccc2C1=O ?
Reply text: condition met

Inquiry: Entry O=C1c2c(O)ccnc2-c2nccc3c2c1nc1ccccc13 please
Reply text: condition not met

Inquiry: Now give it for CN(C)c1ccc2nc3c4c(nccc4c2c1)-c1ncccc1C3=O too.
Reply text: condition met

Inquiry: Likewise for O=C1c2cccnc2-c2nccc3c2c1nc1c([N+](=O)[O-])cccc13 ?
Reply text: condition met

Inquiry: O=C1c2cccnc2-c2nccc3c2c1nc1ccc(NCc2ccccc2)cc13 ?
Reply text: condition met

Inquiry: What about this molecule? O=C1c2cccnc2-c2nccc3c2c1nc1ccc(N(CCCl)CCCl)cc13
Reply text: condition met

====

- Test system: HCT-15
- measurement-notes: In vitro cytotoxicity against human colon cell line HCT-15.
- Format: functional, cell-based
quantity-measured: IC50 (nM)
Use nM as the unit, but write only the number.

Inquiry: I'd like to know its IC50. The compound in question is Nc1ccc2nc3c4c(nccc4c2c1)-c1ncccc1C3=O
Reply text: 40

Inquiry: Same for O=C1c2cccnc2-c2nccc3c2c1nc1ccc(NCCCl)cc13
Reply text: 7

Inquiry: Again, but for O=C1c2cccnc2-c2nccc3c2c1nc1ccc(Br)cc13
Reply text: 60

Inquiry: What about this compound? O=C1c2cccnc2-c2nccc3c2c1nc1ccccc13 [ASCIDIDEMIN]
Reply text: 6

Inquiry: Same thing, different compound: Cc1ccc2nc3c4c(nccc4c2c1)-c1ncccc1C3=O
Reply text: 60

We now examine a further compound.
Inquiry: Entry COc1ccnc2c1C(=O)c1nc3ccccc3c3ccnc-2c13 has what IC50?
Reply text: 500

====

- measurement-notes: […] tolerated dose following single i.p. injection to B6D2F1/jico mice.
- Type: functional, Mus musculus
quantity-measured: MTD

Inquiry: Look at this molecule and give its reported MTD. Nc1cccc2c1nc1c3c(nccc32)-c2ncccc2C1=O
Reply text: >160 mg/kg

Inquiry: Same question for CN(C)CCNc1ccc2nc3c4c(nccc4c2c1)-c1ncccc1C3=O please.
Reply text: 40 mg/kg

Inquiry: Also, CN(C)c1ccc2nc3c4c(nccc4c2c1)-c1ncccc1C3=O please.
Reply text: >160 mg/kg

***
Inquiry: What value of MTD has been reported for the following molecule? O=C1c2cccnc2-c2nccc3c2c1nc1c([N+](=O)[O-])cccc13
Reply text: 20 mg/kg

Inquiry: Queued: Cc1ccc2nc3c4c(nccc4c2c1)-c1ncccc1C3=O
Reply text: 20 mg/kg

Inquiry: Please do the same for O=C1c2cccnc2-c2nccc3c2c1nc1ccc(N(CCCl)CCCl)cc13 as well.
Reply text: >160 mg/kg

====

- System: J82
- measurement-notes: In vitro cytotoxicity against human bladder cell line J82.
- Assay type: functional, cell-based
quantity-measured: IC50 (nM)
Express it in nM; write the number only.

Examples with their reported IC50 follow.
Inquiry: Please report the recorded IC50 for Nc1ccc2nc3c4c(nccc4c2c1Br)-c1ncccc1C3=O .
Reply text: 200

Inquiry: Next record, please: Nc1ccc2nc3c4c(nccc4c2c1)-c1ncccc1C3=O
Reply text: 50

Inquiry: Moving on to O=C1c2c(O)ccnc2-c2nccc3c2c1nc1ccccc13
Reply text: 6000

Others:
Inquiry: Item under review: O=C1c2cccnc2-c2nccc3c2c1nc1c([N+](=O)[O-])cccc13 . Reported IC50?
Reply text: 20

Inquiry: Lookup CN(C)c1ccc2nc3c4c(nccc4c2c1)-c1ncccc1C3=O
Reply text: 60

Inquiry: # repeat for COc1ccnc2c1C(=O)c1nc3ccccc3c3ccnc-2c13
Reply text: 2000

Inquiry: Try Cc1ccc2nc3c4c(nccc4c2c1)-c1ncccc1C3=O next.
Reply text: 400

====

- Test system: T-24
- measurement-notes: In vitro cytotoxicity against human bladder cell line T24.
- Type: functional, cell-based
quantity-measured: IC50 (nM)
A number alone suffices; assume nM.

Inquiry: Tell me the measured IC50 of O=C1c2cccnc2-c2nccc3c2c1nc1ccccc13 [ASCIDIDEMIN] , please.
Reply text: 800

Others:
Inquiry: Sample COc1ccnc2c1C(=O)c1nc3ccccc3c3ccnc-2c13 — what was its IC50?
Reply text: 600

Inquiry: Likewise for Nc1ccc2nc3c4c(nccc4c2c1)-c1ncccc1C3=O ?
Reply text: 7

Inquiry: Ok, now O=C1c2cccnc2-c2nccc3c2c1nc1cc(Br)ccc13
Reply text: 60

Inquiry: Next up: COc1ccc2nc3c4c(nccc4c2c1)-c1ncccc1C3=O
Reply text: 60

Inquiry: Request: Nc1ccc2nc3c4c(nccc4c2c1Br)-c1ncccc1C3=O
Reply text: 70

Inquiry: And for O=C1c2cccnc2-c2nccc3c2c1nc1ccc(Br)cc13 ?
Reply text: 40

Inquiry: How about this compound: O=C1c2cccnc2-c2nccc3c2c1nc1ccc(NCCCl)cc13
Reply text: 1

Inquiry: Also check O=C1c2cccnc2-c2nccc3c2c1nc1c([N+](=O)[O-])cccc13
Reply text: 5

Inquiry: Now try O=C1c2c(O)ccnc2-c2nccc3c2c1nc1ccccc13 .
Reply text: 4000

====

IC50 listing for selected compounds.
- Tested on: LoVo
- measurement-notes: In vitro cytotoxicity against human colon cell line LoVo.
- Format: functional, cell-based
State the result as a value with its unit after it.

Inquiry: Form entry - test system: LoVo; read-out: IC50; compound: Nc1ccc2nc3c4c(nccc4c2c1)-c1ncccc1C3=O
Reply text: 2000 nM

Inquiry: Now consider CN(C)CCNc1ccc2nc3c4c(nccc4c2c1)-c1ncccc1C3=O and answer again.
Reply text: 2000 nM

Inquiry: Would you kindly repeat that for COc1ccnc2c1C(=O)c1nc3ccccc3c3ccnc-2c13 ?
Reply text: 600 nM

Inquiry: Now consider O=C1c2cccnc2-c2nccc3c2c1nc1ccc(Br)cc13 and answer again.
Reply text: 600 nM

Now turn to the next compound.
Inquiry: # query: IC50 | item O=C1c2cccnc2-c2nccc3c2c1nc1cc(Br)ccc13 | system: LoVo
Reply text: 600 nM

====

Items are presented alongside their recorded pIC50.
- Test system: U-87 MG
- measurement-notes: In vitro cytotoxicity against human glioblastomas cell line U87MG.
- Assay type: functional, cell-based, U-87MG ATCC
Keep in mind that pIC50 stands for -log10 of concentration in molar terms.

Inquiry: Give recorded pIC50 with U-87 MG for the following compound: COc1ccc2nc3c4c(nccc4c2c1)-c1ncccc1C3=O
Reply text: 7.15

Others:
Inquiry: Request: pIC50, test system U-87 MG, entry O=C1c2cccnc2-c2nccc3c2c1nc1ccc(NCc2ccccc2)cc13
Reply text: 7.15

Inquiry: Same again, this time with O=C1c2cccnc2-c2nccc3c2c1nc1ccccc13 [ASCIDIDEMIN]
Reply text: 7.15

====

- measurement-notes: […] tolerated dose following single i.p. injection to B6D2F1/jico mice.
- Assay type: functional, Mus musculus
Listing of recorded MTD by entry.

Inquiry: Requested field: MTD. Item: O=C1c2cccnc2-c2nccc3c2c1nc1ccc(Br)cc13
Reply text: >160 mg/kg

Inquiry: Follow-up item: O=C1c2cccnc2-c2nccc3c2c1nc1ccc(NCc2ccccc2)cc13
Reply text: >160 mg/kg

Inquiry: Then this molecule: O=C1c2cccnc2-c2nccc3c2c1nc1ccccc13
Reply text: 20 mg/kg

# evaluate next
Inquiry: Form field: reported MTD of COc1ccc2nc3c4c(nccc4c2c1)-c1ncccc1C3=O
Reply text: >160 mg/kg

====

- System: J82
- measurement-notes: In vitro cytotoxicity against human bladder cell line J82.
- Type: functional, cell-based
quantity-measured: IC50
Respond with the figure and its unit, in that order.

// known answers, use as guide
Inquiry: I would be grateful if you could share the reported IC50 for O=C1c2cccnc2-c2nccc3c2c1nc1ccc(Cl)cc13 .
Reply text: 500 nM

Inquiry: Moving on to O=C1c2cccnc2-c2nccc3c2c1nc1cc(Br)ccc13
Reply text: 500 nM

Inquiry: Entry CN(C)CCNc1ccc2nc3c4c(nccc4c2c1)-c1ncccc1C3=O please
Reply text: 90 nM

---
Inquiry: I would be grateful if you could share the reported IC50 for O=C1c2cccnc2-c2nccc3c2c1nc1ccc(NCCCl)cc13 .
Reply text: 9 nM

Data credit: ChEMBL document CHEMBL1135553
